These entries and their values trace back to ChEMBL document CHEMBL1140844.

// inhibition lookup, one value per entry
biological target: 5-hydroxytryptamine receptor 1A (Homo sapiens) (UniProt P08908); experiment: Displacement of [3H]8-OH-DPAT from human cloned 5-HT1A receptor expressed in human HeLa cells at 10 uM; format: cell-based
Sequence (P08908 whole entry): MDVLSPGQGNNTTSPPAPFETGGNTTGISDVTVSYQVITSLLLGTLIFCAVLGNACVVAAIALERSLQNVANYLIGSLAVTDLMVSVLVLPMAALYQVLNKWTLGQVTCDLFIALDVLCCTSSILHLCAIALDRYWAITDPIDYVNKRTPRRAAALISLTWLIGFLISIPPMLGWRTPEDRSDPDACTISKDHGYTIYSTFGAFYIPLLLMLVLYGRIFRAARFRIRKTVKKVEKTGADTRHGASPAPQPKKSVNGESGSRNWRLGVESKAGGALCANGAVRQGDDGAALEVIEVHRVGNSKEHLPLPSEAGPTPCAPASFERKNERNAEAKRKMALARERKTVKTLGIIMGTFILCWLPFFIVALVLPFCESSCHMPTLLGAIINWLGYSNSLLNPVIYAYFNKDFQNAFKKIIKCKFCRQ
Number in %, nothing else.

5-hydroxytryptamine receptor 1A (Homo sapiens) (UniProt P08908) data for COc1cccc(CCc2ccccc2OCCCN2CCc3cc(OC)c(OC)cc3C2)c1 ; its inhibition: 36

====

target: UniProtKB P14416; test: Displacement of [3H]spiroperidol from human cloned dopaminergic D2 receptor expressed in rat C6 cells
pKi: −log10 of the molar value.
// pKi lookup, one value per entry

Record excerpt, results attached:
COc1cccc(CCc2ccccc2OCCN2CCc3ccccc3C2)c1    < 6.00
COc1cccc(CCc2ccccc2OCCN2CCN(c3cccc(Cl)c3)CC2)c1    < 6.00
COc1cccc(CCc2ccccc2OCCCN2CCc3cc(OC)c(OC)cc3C2)c1    < 6.00
COc1cccc(CCc2ccccc2OCCCCN2CCN(c3cccc(Cl)c3)CC2)c1    < 6.00

Memo: COc1cccc(CCc2ccccc2OCCCCN2CCN(c3ncccn3)CC2)c1 , reported pKi: 6.07

Memo: COc1cccc(CCc2ccccc2OCCN2CCN(c3ccccc3OC)CC2)c1 , reported pKi: 6.37

Memo: COc1cccc(CCc2ccccc2OCCCCN2CCc3ccccc3C2)c1 , reported pKi: < 6.00

Memo: COc1cccc(CCc2ccccc2OCCCCCN2CCN(c3ccccc3OC)CC2)c1 , reported pKi: < 6.00

Memo: COc1cccc(CCc2ccccc2OCCCCCN2CCc3ccccc3C2)c1 , reported pKi: < 6.00

Memo: COc1cccc(CCc2ccccc2OCCCN2CCN(c3ncccn3)CC2)c1 , reported pKi: 7.70

Memo: COc1cccc(CCc2ccccc2OCCCCN2CCN(c3ccccc3OC)CC2)c1 , reported pKi: 7.17

====

// log10(Ki) lookup, one value per entry
biological target: D(2) dopamine receptor (Homo sapiens); test: Displacement of [3H]spiroperidol from human cloned dopaminergic D2 receptor expressed in rat C6 cells
Sequence (P14416 whole entry): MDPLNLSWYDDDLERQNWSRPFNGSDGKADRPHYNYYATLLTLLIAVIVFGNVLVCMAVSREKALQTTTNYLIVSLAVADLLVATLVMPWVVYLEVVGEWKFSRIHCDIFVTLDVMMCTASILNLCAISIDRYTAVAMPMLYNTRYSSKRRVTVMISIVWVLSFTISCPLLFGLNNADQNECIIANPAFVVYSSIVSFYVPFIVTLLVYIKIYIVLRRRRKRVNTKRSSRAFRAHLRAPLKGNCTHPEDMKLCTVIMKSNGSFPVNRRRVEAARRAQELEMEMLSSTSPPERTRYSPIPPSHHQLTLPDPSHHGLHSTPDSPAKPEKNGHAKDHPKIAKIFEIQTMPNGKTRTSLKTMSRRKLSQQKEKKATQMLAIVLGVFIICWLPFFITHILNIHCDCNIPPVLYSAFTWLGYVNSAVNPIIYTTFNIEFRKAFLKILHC
Hey, these are logged values: log10 of Ki, nM being the unit before logging.

Record excerpt, results attached:
COc1cccc(CCc2ccccc2OCCCN2CCN(c3ccc(F)cc3)CC2)c1    2.82
COc1cccc(CCc2ccccc2OCCCN2CCN(C)CC2)c1    2.75
COc1cccc(CCc2ccccc2OCCCCN2CCN(c3ccc(F)cc3)CC2)c1    3.12

For the next question, use this compound.
Memo: COc1cccc(CCc2ccccc2OCCCCCN2CCN(c3ccc(F)cc3)CC2)c1 , reported log10(Ki): 2.93

====

molecular target: ATP-dependent translocase ABCB1 (Homo sapiens, UniProt P08183); assay: Inhibition of ABCB1-mediated [3H]vinblastine transportation in human Caco-2 cells; type: cell-based
Sequence (P08183 whole entry): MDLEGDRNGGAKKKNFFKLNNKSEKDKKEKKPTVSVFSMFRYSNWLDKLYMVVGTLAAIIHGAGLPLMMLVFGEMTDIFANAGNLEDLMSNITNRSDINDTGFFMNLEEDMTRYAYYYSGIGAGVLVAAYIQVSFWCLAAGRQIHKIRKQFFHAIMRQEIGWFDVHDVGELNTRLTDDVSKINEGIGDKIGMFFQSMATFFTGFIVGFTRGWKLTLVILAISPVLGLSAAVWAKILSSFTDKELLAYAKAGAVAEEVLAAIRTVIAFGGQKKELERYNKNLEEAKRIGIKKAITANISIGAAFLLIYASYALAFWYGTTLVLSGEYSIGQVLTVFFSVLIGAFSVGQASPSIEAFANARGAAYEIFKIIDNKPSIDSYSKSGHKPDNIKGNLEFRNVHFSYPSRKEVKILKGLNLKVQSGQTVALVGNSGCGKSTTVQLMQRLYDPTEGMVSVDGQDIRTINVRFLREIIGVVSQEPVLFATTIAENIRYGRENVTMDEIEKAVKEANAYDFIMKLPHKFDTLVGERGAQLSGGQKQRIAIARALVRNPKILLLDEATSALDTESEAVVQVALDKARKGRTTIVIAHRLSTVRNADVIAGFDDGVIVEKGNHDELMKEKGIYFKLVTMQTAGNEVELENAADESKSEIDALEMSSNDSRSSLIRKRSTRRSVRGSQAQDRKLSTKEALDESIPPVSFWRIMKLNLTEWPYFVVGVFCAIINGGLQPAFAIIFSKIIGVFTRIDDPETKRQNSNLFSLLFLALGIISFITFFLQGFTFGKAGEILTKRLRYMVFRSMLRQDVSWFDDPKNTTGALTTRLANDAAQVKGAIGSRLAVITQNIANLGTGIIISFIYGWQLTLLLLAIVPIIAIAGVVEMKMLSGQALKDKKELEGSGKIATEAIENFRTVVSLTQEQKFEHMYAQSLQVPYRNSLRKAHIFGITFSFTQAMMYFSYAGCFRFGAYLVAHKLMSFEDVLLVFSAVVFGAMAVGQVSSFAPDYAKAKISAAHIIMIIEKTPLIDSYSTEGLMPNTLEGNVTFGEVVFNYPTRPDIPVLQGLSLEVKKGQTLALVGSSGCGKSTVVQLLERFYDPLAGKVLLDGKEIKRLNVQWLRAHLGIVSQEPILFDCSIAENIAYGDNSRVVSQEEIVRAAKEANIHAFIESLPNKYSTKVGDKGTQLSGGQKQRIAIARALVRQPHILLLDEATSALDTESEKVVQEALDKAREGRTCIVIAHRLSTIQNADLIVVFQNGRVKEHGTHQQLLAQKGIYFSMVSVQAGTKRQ
// IC50 lookup, one value per entry
Number in nM, nothing else.

Record excerpt, results attached:
COc1cccc(CCc2ccccc2OCCN2CCN(c3cccc(C(F)(F)F)c3)CC2)c1    40000
COc1cccc(CCc2ccccc2OCCN2CCN(c3cccc(Cl)c3)CC2)c1    3200
COc1cccc(CCc2ccccc2OCCCCCN2CCc3cc(OC)c(OC)cc3C2)c1    350
COc1cccc(CCc2ccccc2OCCCN2CCc3ccccc3C2)c1    500
COc1cccc(CCc2ccccc2OCCCN2CCN(c3cccc(C(F)(F)F)c3)CC2)c1    6500
COc1cccc(CCc2ccccc2OCCCN2CCN(c3ncccn3)CC2)c1    1200
COc1cccc(CCc2ccccc2OCCCCCN2CCN(c3ccccc3OC)CC2)c1    1270
COc1cccc(CCc2ccccc2OCCN2CCN(c3ccc(F)cc3)CC2)c1    10000
COc1cccc(CCc2ccccc2OCCCCN2CCN(C)CC2)c1    150
COc1cccc(CCc2ccccc2OCCN2CCc3cc(OC)c(OC)cc3C2)c1    750

Memo: COc1cccc(CCc2ccccc2OCCCCN2CCN(c3cccc(Cl)c3)CC2)c1 , reported IC50: 1800

Memo: COc1cccc(CCc2ccccc2OCCN2CCN(C)CC2)c1 , reported IC50: 800
